Cited source for all entries: ChEMBL document CHEMBL1152046

TARGET_DESC: Delta-type opioid receptor (Mus musculus, UniProt P32300)
Sequence (P32300 whole entry): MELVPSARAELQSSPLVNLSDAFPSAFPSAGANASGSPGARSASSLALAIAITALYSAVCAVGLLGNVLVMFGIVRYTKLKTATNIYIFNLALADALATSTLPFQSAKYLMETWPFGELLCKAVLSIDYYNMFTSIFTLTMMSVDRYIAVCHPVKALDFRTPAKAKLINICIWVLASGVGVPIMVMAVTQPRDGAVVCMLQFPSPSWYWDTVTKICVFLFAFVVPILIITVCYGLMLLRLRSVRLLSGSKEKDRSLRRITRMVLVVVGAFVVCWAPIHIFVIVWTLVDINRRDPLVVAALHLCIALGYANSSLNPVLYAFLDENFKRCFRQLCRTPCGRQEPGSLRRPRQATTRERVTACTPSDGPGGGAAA
PROTOCOL_SUMMARY: inhibition of [3H]DADLE binding to delta-opioid receptor of mouse brain homogenates
READOUT_NAME: pKi
Remember, pKi is on a log scale: it is -log10 of the molar concentration.

| COMPOUND_SMILES | MEAS_VALUE |
| --- | --- |
| CCN1CC[C@]2(c3cccc(O)c3)Cc3c([nH]c(C(=S)N(CC)CC)c3C)C[C@H]2C1 | 8.82 |
| CCN1CC[C@]2(c3cccc(O)c3)Cc3[nH]c(C(=O)N(CC)CC)c(C)c3C[C@H]2C1 | 9.02 |
| CCOC(=O)c1[nH]c2c(c1C)C[C@@]1(c3cccc(O)c3)CCN(CC)C[C@@H]1C2 | 8.62 |
| CCN1CC[C@]2(c3cccc(O)c3)Cc3[nH]c(C(=O)N(C)C)c(C)c3C[C@H]2C1 | 8.17 |
| CCN1CC[C@]2(c3cccc(O)c3)Cc3[nH]c(C(=O)N(C(C)C)C(C)C)c(C)c3C[C@H]2C1 | 8.59 |
| CN1CC[C@]2(c3cccc(O)c3)Cc3nc4ccccc4cc3C[C@H]2C1 | 9.64 |
| CCN(CC)C(=O)c1[nH]c2c(c1C)C[C@@]1(c3cccc(O)c3)CCN(C)C[C@@H]1C2 | 8.52 |

Next molecule, please.
Task: Would you kindly share the measured pKi for CCN1CC[C@]2(c3cccc(O)c3)Cc3[nH]c(C(N)=O)c(C)c3C[C@H]2C1 ?
Output: 7.82
